- System: Plasmodium berghei
- runDescription: Screen against P. berghei liver stage (PbLuc), transformed with Luciferase, at 10uM
- Assay type: functional, HepG2
- conditionsUsed: tested at 10 uM
About 8,600 (12%) of roughly 69,000 compounds showed an effect of 50% or more. For the sample, strong results were picked, then their nearest neighbours and some compounds at random.

{"columns": ["compound", "studySystem", "INHIBITION [%]"],
 "data": [
  ["CC(C)C1CN(C(=O)c2ccccc2)CCS1 (centres undefined)", "Plasmodium berghei", 61.3],
  ["COc1ccc(-n2nc(C)c(C(C)=O)c2C)cc1C(N)=O", "Plasmodium berghei", -17.5],
  ["Cn1cnnc1SCC(=O)NC1CC(=O)N(CCc2ccccc2)C1 (centres undefined)", "Plasmodium berghei", -6.18],
  ["Nc1nccnc1C1CN(C(=O)c2cnccn2)CCO1 (centres undefined)", "Plasmodium berghei", -9.32],
  ["CCOc1ccc(-n2nc(C)c(CC(C)=O)c2C)cc1C(N)=O", "Plasmodium berghei", 52.8],
  ["Cc1noc(C)c1-c1cccc(CC2CCN(C(=O)CN)C2)n1 (centres undefined)", "Plasmodium berghei", 36.7],
  ["COc1ccc2c(ccn2CCC(=O)NCCC(=O)O)c1", "Plasmodium berghei", 42.1],
  ["Cc1ccc(CN2C[C@@H]3COC[C@H](NS(C)(=O)=O)[C@@H]3C2)o1", "Plasmodium berghei", 6.38],
  ["Cn1nc(C2CN(C(=O)c3ccncc3)C2)c2nccnc21", "Plasmodium berghei", 22]
]}

###

Below, each entry is listed alongside its reported INHIBITION.
- System: Plasmodium berghei
- runDescription: Screen against P. berghei liver stage (PbLuc), transformed with Luciferase, at 10uM
- Format: functional, HepG2
- conditionsUsed: tested at 10 uM
Hit rate of the full screen: of about 69,000 compounds, about 8,600 (12%) showed an effect of 50% or more. The full list was thinned out, with strong results kept by preference.
reportedEndpoint: INHIBITION (%)

{"columns": ["molecule", "readingUnit", "readoutValue"],
 "data": [
  ["Cc1sc2nc(C(F)(F)F)nc(N3CCC(NS(C)(=O)=O)CC3)c2c1C", "%", 34.4],
  ["Cc1cnn(CCNCc2nnc(Cc3ccccc3)o2)c1", "%", 2.97],
  ["Cc1nc(N2CCCC2)nc2c1CN(C(C)C)CC2", "%", -10.4],
  ["CCC(NC1CCCC1)c1ccc(S(C)(=O)=O)cc1 (stereo unspecified)", "%", 22.1],
  ["CC(C)n1cnc2c(-c3cccnc3)nc(C3CCNCC3)cc21", "%", 55.7],
  ["CC(=O)N1CCN(c2nc(C(F)(F)F)nc3sc(C)c(C)c23)CC1", "%", 34.4],
  ["Cc1nc(C)n(CC2CN(c3ncccc3C#N)CCO2)n1 (stereo unspecified)", "%", -14.7],
  ["CCOCC(=O)N1CCC(C)(c2nccs2)CC1", "%", 38.05],
  ["Cc1nccc(CN2CC[C@@]3(CCCN3Cc3ccccc3)[C@@H](O)C2)n1", "%", 39.7],
  ["COC(=O)CCCn1ccnc1-c1ccc(OC)c(F)c1F", "%", 43.9],
  ["CN1C(=O)C(c2cccnc2)CC12CCN(CCO)CC2 (stereo unspecified)", "%", -7.24],
  ["CC(C)Nc1nc(N2CCCC2)nc2c1CN(S(C)(=O)=O)CC2", "%", -29],
  ["CC(C)N1CCC2(CC1)CC(NS(C)(=O)=O)c1ccccc1O2 (stereo unspecified)", "%", -12.2],
  ["Cc1cc(Nc2ccc(F)cn2)cc(C2CCN(Cc3ncc[nH]3)C2)n1 (stereo unspecified)", "%", 42.6],
  ["Cn1cnc2c(-c3ccccc3)nc(C3CCNCC3)cc21", "%", 38.5],
  ["Cn1cc(-c2nc(C3CCN(CC4CC4)CC3)cc3c2ncn3C)cn1", "%", 61.5],
  ["CCC(C)N1CCc2nc(N3CCCC3)nc(NC(C)C)c2C1 (stereo unspecified)", "%", 2.59],
  ["CCn1c(Cn2cncn2)nnc1C1CCN(CCN)CC1", "%", 43.8],
  ["CC1=C(C(=O)NCCc2n[nH]c3c2CCCC3)C(C)NC(=O)N1 (stereo unspecified)", "%", -22.3],
  ["CC(C)Nc1nc(N2CCCC2)nc2c1CN(c1ncc(F)cn1)CC2", "%", 65.8],
  ["Cc1nn(Cc2ccc(C(=O)NC3CCS(=O)(=O)C3)cc2)c(C)c1Br (stereo unspecified)", "%", 7.3],
  ["CCn1c(Cn2cncn2)nnc1C1CCN(Cc2ccncc2)CC1", "%", -22.1],
  ["CN1CCC2(Cc3ccccc3CN(C(=O)CCN)C2)C1 (stereo unspecified)", "%", 40],
  ["CN1CCCN(c2nc(C3CCCC3)nc3c2cnn3C)CC1", "%", 26.4],
  ["O=C(CC1[C@H]2CN(Cc3ccsc3)C[C@@H]12)N1CCCC1 (stereo partly specified)", "%", 7.5],
  ["CC(C)Cc1nc(CCn2cncn2)n(-c2ccc3c(c2)OCCO3)n1", "%", 41.2],
  ["Cc1nc(C(F)(F)F)nc(N2CCC(O)(C(=O)O)CC2)c1C", "%", 24.4],
  ["O=C(CN1CCOC1=O)N(Cc1ccccc1)Cc1nccs1", "%", 22.1],
  ["Cc1noc(C)c1CN1CCC2(CC1)C(c1ccccc1)CC(=O)N2C (stereo unspecified)", "%", 42.1],
  ["Cc1cccc(CN2CCC3(CC2)CC(c2cccnc2)C(=O)N3C)n1 (stereo unspecified)", "%", 20.6],
  ["CC(C)n1cnc2c(N3CCCC3)nc(C3CCNCC3)cc21", "%", -3.52],
  ["COc1ccc(-c2ccnc(C3CCNCC3)c2)cc1", "%", 29.2],
  ["CC(C)Nc1nc(N2CCCC2)nc2c1CN(C(C)C)CC2", "%", 61.8],
  ["O[C@@H]1CN(Cc2ccncc2)C[C@H]1Oc1ccccc1", "%", 39.7],
  ["CC(C)Nc1nc(N2CCCC2)nc2c1CCN(S(C)(=O)=O)CC2", "%", 35.2],
  ["O=S(=O)(c1ccccc1)N1CCCC1c1cc[nH]n1 (stereo unspecified)", "%", 18.9],
  ["CN1CCCN(c2nc(C3CC3)ns2)CC1", "%", -31.5],
  ["CC(C)Nc1nc(N2CCCC2)nc2c1CN(C)CC2", "%", 22.4],
  ["Cc1sc2nc(C(F)(F)F)nc(N3CCN(S(C)(=O)=O)CC3)c2c1C", "%", 55],
  ["COCCC(=O)NC1CCN(CC2(c3cccc(F)c3)CCCC2)CC1", "%", 12.3],
  ["CN1C(=O)CC(c2ccccc2)C12CCN(CCO)CC2 (stereo unspecified)", "%", -63.9]
]}
